Could you please report measured Biodistribution: Liver for the items listed next?
PROTOCOL NOTES: Biodistribution of radiotracers in normal mice
Assay type: in vivo, mouse
PARTICULARS: normal male mice, 120 min
Your answer is read as % dose/g, so omit the unit and give the number.

# input May I ask what Biodistribution: Liver has been recorded for O=C(O)CC[C@H](NC(=O)N[C@@H](CCCCNC(=O)CCCCCNC(=O)CCc1ccc2c(n1)C[N+]13CC[N+]45CC(=O)[O][68Ga-3]14([O]C(=O)C3)([O]2)[O]c1ccc(CCC(=O)NCCCCCC(=O)NCCCC[C@H](NC(=O)N[C@@H](CCC(=O)O)C(=O)O)C(=O)O)nc1C5)C(=O)O)C(=O)O (stereo partly shown) [[^68Ga]3] ?
# output 2.00

# input Likewise for O=C(O)CC[C@H](NC(=O)N[C@@H](CCCCNC(=O)CCCCCNC(=O)CCc1ccc2c(c1)C[N+]13CC[N+]45CC(=O)[O][68Ga-3]14([O]C(=O)C3)([O]2)[O]c1ccc(CCC(=O)NCCNC(=O)CN2CCN(CC(=O)O)CCN(CC(=O)O)CCN(CC(=O)O)CC2)cc1C5)C(=O)O)C(=O)O (stereo partly shown) [[^68Ga]1g] ?
# output 0.30

# input Likewise for O=C(O)CCc1ccc(O)c(CN(CCN(CC(=O)O)Cc2cc(CCC(=O)NCCCCCC(=O)NCCCC[C@H](NC(=O)N[C@@H](CCC(=O)O)C(=O)O)C(=O)O)ccc2O)CC(=O)O)n1 [[^68Ga]4a, metal not drawn] ?
# output 0.18

# input Likewise for O=C(O)CCc1ccc2c(c1)C[N+]13CC[N+]45CC(=O)[O][68Ga-3]14([O]C(=O)C3)([O]2)[O]c1ccc(CCC(=O)NCC(=O)N[C@@H](Cc2ccc(OCC(=O)N[C@@H](Cc3ccccc3)C(=O)NCCCC[C@H](NC(=O)N[C@@H](CCC(=O)O)C(=O)O)C(=O)O)cc2)C(=O)O)cc1C5 (stereo partly shown) [[^68Ga]5b] ?
# output 0.37

----------
PROTOCOL NOTES: Biodistribution of radiotracers in normal mice
Assay type: in vivo, mouse
PARTICULARS: normal male mice, 2 min
Could you please report measured Biodistribution: Skin for the items listed next?
Your answer is read as % dose/g, so omit the unit and give the number.

# input May I ask what Biodistribution: Skin has been recorded for O=C(O)CCc1ccc2c(c1)C[N+]13CC[N+]45CC(=O)[O][68Ga-3]14([O]C(=O)C3)([O]2)[O]c1ccc(CCC(=O)NCC(=O)N[C@@H](Cc2ccc(OCC(=O)N[C@@H](Cc3ccccc3)C(=O)NCCCC[C@H](NC(=O)N[C@@H](CCC(=O)O)C(=O)O)C(=O)O)cc2)C(=O)O)cc1C5 (stereo partly shown) [[^68Ga]5b] ?
# output 2.38

# input Likewise for O=C(O)CC[C@H](NC(=O)N[C@@H](CCCCNC(=O)CCCCCNC(=O)CCc1ccc2c(c1)C[N+]13CC[N+]45CC(=O)[O][68Ga-3]14([O]C(=O)C3)([O]2)[O]c1ccc(CCC(=O)NCC(=O)O)cc1C5)C(=O)O)C(=O)O (stereo partly shown) [[^68Ga]1c] ?
# output 3.00

# input Likewise for O=C(O)CCc1ccc(O)c(CN(CCN(CC(=O)O)Cc2cc(CCC(=O)NCCCCCC(=O)NCCCC[C@H](NC(=O)N[C@@H](CCC(=O)O)C(=O)O)C(=O)O)ccc2O)CC(=O)O)n1 [[^68Ga]4a, metal not drawn] ?
# output 2.84

# input Likewise for O=C(O)CC[C@H](NC(=O)N[C@@H](CCCCNC(=O)CCCCCNC(=O)CCc1ccc2c(c1)C[N+]13CC[N+]45CC(=O)[O][68Ga-3]14([O]C(=O)C3)([O]2)[O]c1ccc(CCC(=O)NCCNC(=O)CN2CCN(CC(=O)O)CCN(CC(=O)O)CCN(CC(=O)O)CC2)cc1C5)C(=O)O)C(=O)O (stereo partly shown) [[^68Ga]1g] ?
# output 2.00
